The values you see were collected from paper PMC10397247.

Target: T1, 4H629-AA
T1 chain: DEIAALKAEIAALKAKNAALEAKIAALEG
Experiment: two-hybrid library CCmax;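 further: natural log of median RNA to DNA barcode read ratio; higher means stronger binding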
Conditions: mean of both orientations
readout_type: interaction score
Just the number, please, no unit attached.

Example entries begin here.
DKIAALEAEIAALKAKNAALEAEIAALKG [4H2162-AA] : -1.01
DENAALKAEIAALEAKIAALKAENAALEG [4H1579-AA] : -1.42
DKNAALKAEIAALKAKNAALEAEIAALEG [4H3697-AA] : -0.654

What value of interaction score has been reported for the following binder? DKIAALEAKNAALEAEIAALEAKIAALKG [4H2438-AA]
-1.42

What value of interaction score has been reported for the following binder? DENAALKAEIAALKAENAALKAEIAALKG [4H1626-AA]
-1.63

What value of interaction score has been reported for the following binder? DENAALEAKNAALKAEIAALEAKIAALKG [4H1478-AA]
-1.23

What value of interaction score has been reported for the following binder? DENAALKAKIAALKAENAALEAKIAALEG [4H1877-AA]
-0.167

What value of interaction score has been reported for the following binder? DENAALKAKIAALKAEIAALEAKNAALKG [4H1864-AA]
-1.52

What value of interaction score has been reported for the following binder? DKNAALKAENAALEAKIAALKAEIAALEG [4H3753-AA]
-1.7

What value of interaction score has been reported for the following binder? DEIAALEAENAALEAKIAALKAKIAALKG [4H174-AA]
-0.697

What value of interaction score has been reported for the following binder? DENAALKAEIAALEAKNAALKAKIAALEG [4H1597-AA]
0.0113

What value of interaction score has been reported for the following binder? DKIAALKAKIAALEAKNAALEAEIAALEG [4H2865-AA]
-0.872

What value of interaction score has been reported for the following binder? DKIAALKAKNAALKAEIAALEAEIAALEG [4H3009-AA]
1.67

What value of interaction score has been reported for the following binder? DEIAALKAEIAALEAENAALEAKNAALKG [4H536-AA]
0.302
